Target: Angiotensin type II receptor (Sus scrofa, UniProt Q2XUH7)
Sequence (Q2XUH7 whole entry): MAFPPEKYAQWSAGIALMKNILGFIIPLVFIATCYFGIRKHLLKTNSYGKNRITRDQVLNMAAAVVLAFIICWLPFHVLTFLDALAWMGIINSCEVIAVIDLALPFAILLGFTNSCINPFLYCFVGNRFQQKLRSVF
Test: Displacement of [125I]angiotensin 2 from AT2 receptor in pig uterus membrane after 1.5 hrs by gamma counting
Format: cell membranes
Quantity name: Ki (nM)
Please reply with the bare figure in nM and do not write the unit itself.

Let me check: CCCCOC(=O)NS(=O)(=O)c1sc(CC(C)C)cc1-c1ccc(Cc2ccsc2)cc1 , system Angiotensin type II receptor (Sus scrofa, UniProt Q2XUH7), measured Ki is 175

Result for CCCCOC(=O)NS(=O)(=O)c1sc(CC(C)C)cc1-c1ccc(Cc2ncco2)cc1 , tested on Angiotensin type II receptor (Sus scrofa, UniProt Q2XUH7), Ki: 3.9

Reported Ki (Angiotensin type II receptor (Sus scrofa, UniProt Q2XUH7)) for entry CCCCOC(=O)NS(=O)(=O)c1sc(CC(C)C)cc1-c1ccc(C(=O)c2cccs2)cc1 is 18.8

Entry CCCCOC(=O)NS(=O)(=O)c1sc(CC(C)C)cc1-c1ccc(C(=O)c2nccs2)cc1 , Angiotensin type II receptor (Sus scrofa, UniProt Q2XUH7) data, Ki value: 18.6

Origin of the recorded values: ChEMBL document CHEMBL1165972
